- Test system: SK-MEL-5 melanoma
- procedure_summary: NCI-60 one-dose screen, 48 h
- run_conditions: 10 µM
The panel holds about 83,000 compounds, 20% with a hit somewhere; the sample as a whole holds those more often. The source made the active and inactive calls. The calls were made as follows: active = growth percent below 10; inactive = the rest.
Just give me one of these, please: active, inactive

Solved entries (count: 5):
item_smiles=CCCCCCCCCCCCCCCCCCCC(=O)NCCc1c[nH]c2ccc(O)cc12 qualitative_label=inactive
item_smiles=O=C(Nc1nc2ccc([N+](=O)[O-])cc2s1)Nc1ccccc1I qualitative_label=active
item_smiles=CCCCSc1nc(Nc2ccc(/C(C)=N/NC(N)=S)cc2)c(C#N)c(-c2ccccc2)n1 qualitative_label=inactive
item_smiles=CCCCCc1ccc(S(=O)(=O)Nc2cc(-c3csc(N(C)C(C)=O)n3)ccc2N2CCN(C)CC2)cc1 qualitative_label=active
item_smiles=CC(=O)Nc1nc(-c2ccc(N3CCN(C)CC3)c(NS(=O)(=O)c3cccc4c(N(C)C)cccc34)c2)cs1 qualitative_label=inactive

Consider now this further molecule.
Which outcome was entered for the molecule "C#CCNC(=O)[C@]12CCC(C)(C)C[C@H]1C1=CC[C@@H]3[C@@](C)(CCC#N)[C@H](C(=C)C)CC[C@@]3(C)[C@]1(C)CC2" in this test?
inactive
